Attribution: the supplement of paper PMC10723795

# Tested on: RPE1
# Test Protocol: nucleolar normality score relative to DMSO (fraction of DMSO control); higher = more normal nucleoli (less nucleolar stress)

Chem Smiles | nucleolar normality score
COC[C@H](NC(=O)c1cnc(C)s1)C(=O)N[C@@H](COC)C(=O)N[C@@H](Cc1ccccc1)C(=O)[C@@]1(C)CO1 | 0.55
CC(C)n1nc(-c2ccc3oc(N)nc3c2)c2c(N)ncnc21 | 0.405
CC(C)c1cc(C(=O)N2Cc3ccc(CN4CCN(C)CC4)cc3C2)c(O)cc1O | 0.289
Cc1nc(-c2cn3c(n2)-c2ccc(-c4cnn(C(C)(C)C(N)=O)c4)cc2OCC3)n(C(C)C)n1 | 0.376
CN1CC[C@H](c2c(O)cc(O)c3c(=O)cc(-c4ccccc4Cl)oc23)[C@H](O)C1 | 0.254
CCc1cnn2c(NCc3ccc[n+]([O-])c3)cc(N3CCCC[C@H]3CCO)nc12 | 0.268
CN(C)CCNC(=O)c1cccn2c(=O)c3cc4ccccc4cc3nc12 | 0.0724
CC(C)C[C@H](NC(=O)[C@H](CCc1ccccc1)NC(=O)CN1CCOCC1)C(=O)N[C@@H](Cc1ccccc1)C(=O)N[C@@H](CC(C)C)C(=O)[C@@]1(C)CO1 | 0.501
COc1cccc2c1C(=O)c1c(O)c3c(c(O)c1C2=O)C[C@@](O)(C(=O)CO)C[C@@H]3O[C@H]1C[C@H](N)[C@H](O)[C@H](C)O1 | 0.133

----------
# Tested on: DLD1
# Test Protocol: nucleolar normality score relative to DMSO (fraction of DMSO control); higher = more normal nucleoli (less nucleolar stress)
Measured nucleolar normality score of individual entries

Compound | Target Or Test System | nucleolar normality score
CC(C)c1c2cc(-c3ccnc(NC4CCC(NC5CCOCC5)CC4)n3)ccc2nn1C (stereo not given) | DLD1 | 0.509
COc1cccc2c1C(=O)c1c(O)c3c(c(O)c1C2=O)C[C@@](O)(C(=O)CO)C[C@@H]3O[C@H]1C[C@H](N)[C@H](O)[C@H](C)O1 | DLD1 | 0.36
C=CCNC1=C2C[C@@H](C)C[C@H](OC)[C@H](O)[C@@H](C)/C=C(\C)[C@H](OC(N)=O)[C@@H](OC)/C=C\C=C(/C)C(=O)NC(=CC1=O)C2=O | DLD1 | 0.436
CN1CC[C@H](c2c(O)cc(O)c3c(=O)cc(-c4ccccc4Cl)oc23)[C@H](O)C1 | DLD1 | 0.432
Cc1cnc(CNC(=O)c2c(=O)c3ccc(N4CCCN(C)CC4)nc3n3c2sc2ccccc23)cn1 | DLD1 | 0.224

----------
# System: HCT116
# Test Protocol: nucleolar normality score relative to DMSO (fraction of DMSO control); RPE1 is a non-cancer human cell line; higher = more normal nucleoli (less nucleolar stress)

Compound | Target Or Test System | nucleolar normality score
CN1CC[C@H](c2c(O)cc(O)c3c(=O)cc(-c4ccccc4Cl)oc23)[C@H](O)C1 [Flavopiridol] | HCT116 | 0.452
CC(C)C[C@H](NC(=O)[C@H](CCc1ccccc1)NC(=O)CN1CCOCC1)C(=O)N[C@@H](Cc1ccccc1)C(=O)N[C@@H](CC(C)C)C(=O)[C@@]1(C)CO1 [Carfilzomib] | HCT116 | 0.574
CN(C)CCNC(=O)c1cccn2c(=O)c3cc4ccccc4cc3nc12 | HCT116 | 0.202
COC[C@H](NC(=O)c1cnc(C)s1)C(=O)N[C@@H](COC)C(=O)N[C@@H](Cc1ccccc1)C(=O)[C@@]1(C)CO1 [Oprozomib] | HCT116 | 0.658
